Target: Ephrin type-B receptor 3 (Homo sapiens) (UniProt P54753);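 further: reported value is the mean percent inhibition of EPHB3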
Sequence (P54753 whole entry): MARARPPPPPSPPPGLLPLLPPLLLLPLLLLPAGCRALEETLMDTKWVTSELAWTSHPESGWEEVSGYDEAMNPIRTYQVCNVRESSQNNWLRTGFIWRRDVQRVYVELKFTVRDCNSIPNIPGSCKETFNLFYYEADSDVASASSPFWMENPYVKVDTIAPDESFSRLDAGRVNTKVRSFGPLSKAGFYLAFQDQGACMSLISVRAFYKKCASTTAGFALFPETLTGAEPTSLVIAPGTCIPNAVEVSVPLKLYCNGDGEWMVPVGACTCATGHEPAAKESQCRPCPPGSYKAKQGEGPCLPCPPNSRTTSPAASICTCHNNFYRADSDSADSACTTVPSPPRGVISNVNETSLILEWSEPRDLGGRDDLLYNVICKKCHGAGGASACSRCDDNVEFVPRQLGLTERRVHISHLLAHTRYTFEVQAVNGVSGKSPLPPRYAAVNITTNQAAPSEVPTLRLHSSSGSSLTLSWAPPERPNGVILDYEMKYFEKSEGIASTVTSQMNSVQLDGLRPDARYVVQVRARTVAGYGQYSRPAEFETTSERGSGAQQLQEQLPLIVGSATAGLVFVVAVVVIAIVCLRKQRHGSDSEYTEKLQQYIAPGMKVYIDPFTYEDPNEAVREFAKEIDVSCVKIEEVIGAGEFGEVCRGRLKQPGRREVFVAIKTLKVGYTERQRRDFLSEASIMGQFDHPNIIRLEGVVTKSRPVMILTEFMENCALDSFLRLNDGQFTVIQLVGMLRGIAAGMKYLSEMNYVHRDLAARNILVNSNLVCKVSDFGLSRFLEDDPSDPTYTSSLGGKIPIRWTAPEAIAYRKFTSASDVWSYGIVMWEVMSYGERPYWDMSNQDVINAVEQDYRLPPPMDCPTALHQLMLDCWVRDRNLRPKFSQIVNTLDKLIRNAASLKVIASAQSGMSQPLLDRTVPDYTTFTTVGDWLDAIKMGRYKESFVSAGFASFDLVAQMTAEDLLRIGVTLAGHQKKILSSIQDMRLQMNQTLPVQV
Settings: at 0.1 µM
observed-property: inhibition (%)

> print(dat)
                                    molecule  reported.value
 1  O=C(Nc1n[nH]c2cc(-c3cc(F)ccc3F)ccc12)C1CC1            8.17
 2  COc1cc(Nc2ncc3c(C)nc(-c4cccc(C(F)(F)F)c4)n3n2)cc(OC)c1OC            6.46
 3    Clc1ccc(CNc2nccc(-c3cnn4ncccc34)n2)cc1            2.09
 4  Nc1nccc(-c2c(-c3ccc(F)cc3)ncn2C2CCC(O)CC2)n1 (stereo not given)            1.08
 5  CS(=O)(=O)CCNCc1ccc(-c2ccc3ncnc(Nc4ccc(OCc5ccccc5)c(Br)c4)c3c2)o1            -1.4
 6  C/C(Nc1ccc(S(N)(=O)=O)cc1)=C1/C(=O)Nc2ccccc21           -3.87
 7  COc1ccc2ncn(-c3cc(O[C@H](C)c4ccccc4Cl)c(C(N)=O)s3)c2c1            0.01
 8  Cc1ccc(C(=O)NC2CCC2)cc1-c1ccc(C(=O)NCC2CC2)cc1            3.94
 9     O=C(Nc1n[nH]c2nc(-c3ccco3)ccc12)C1CC1            3.53
10  c1ccc(-c2n[nH]cc2-c2ccnc(-c3ccc(OCCN4CCOCC4)cc3)c2)nc1           -5.09
11  CCS(=O)(=O)c1ccc(OC)c(Nc2ncc(-c3ccccc3Cl)o2)c1            4.07
12  COc1cc(C)c(N(C)C(=O)CN(C)C)cc1Nc1nc(Nc2cccc(F)c2C(N)=O)c2cc[nH]c2n1           -1.17
13       Fc1ccc(-c2c(-c3ccncc3)nc3n2CCS3)cc1            1.23
14  O=C(Nc1n[nH]c2nc(-c3ccc(O)cc3)c(Br)cc12)C1CC1            9.61
15  Cc1nnc(-c2ccc(C)c(-c3ccc(C(=O)NCc4ccc(Cl)cc4)cc3)c2)o1            1.15
16  COc1ccc2cc(-c3c(-c4ccncc4)nc(-c4ccc(S(C)(=O)=O)cc4C)n3C)ccc2c1            7.13
17  COc1cccc(-n2cnc3c(N/N=C/c4ccncc4)ncnc32)c1           -8.69
18  NC(=O)Cc1ccccc1Oc1nccc(-c2c(-c3ccc(F)cc3)ncn2C2CCNCC2)n1            3.13
19  COc1ccc2cc(-c3c(-c4ccncc4)nc(-c4ccc([S+](C)[O-])cc4C)n3C)ccc2c1 (stereo not given)            4.06
20  CCS(=O)(=O)c1ccc(OC)c(Nc2ncc(-c3cccc(-c4ccccc4F)c3)o2)c1            2.15

Ref: ChEMBL document CHEMBL1961873
